Recorded measurements of RP-LC retention time, one per entry
assay: gradient 5% acetonitrile 3 min, to 50% in 2 min, to 85% in 15 min, held 3 min, 100 µL/min; details: column: Zorbax Extend-C18 2.1 x 50 mm; eluents: water / acetonitrile, 0.1% formic acid
Report as a plain number; the unit s is understood.

{"MOLECULE": "O=C(Nc1cccn2cnnc12)c1cccc(C(F)(F)F)c1", "RESULT UNITS": "s", "NUMERIC VALUE": 738}
{"MOLECULE": "O=C(NCCCS(=O)(=O)N1CCN(c2ncccn2)CC1)c1ccncc1", "RESULT UNITS": "s", "NUMERIC VALUE": 568}
{"MOLECULE": "CCOc1ccc(S(=O)(=O)c2ccc(C)cc2)c2c1no[n+]2[O-]", "RESULT UNITS": "s", "NUMERIC VALUE": 1050}
{"MOLECULE": "COc1ccc(Oc2cc3c(cc2NS(=O)(=O)c2ccc(OC)c(OC)c2)n(C)c(=O)n3C)cc1", "RESULT UNITS": "s", "NUMERIC VALUE": 821}
{"MOLECULE": "CCc1ccc(CN2C(=O)CN(S(C)(=O)=O)CC2(C)C(=O)NC2CCCCCCC2)cc1 (centres undefined)", "RESULT UNITS": "s", "NUMERIC VALUE": 1040}

Asked: Bench note: what RP-LC retention time did `CCOc1ccc(-c2nc(CN3CCN(C(=O)NC4CCCC4)CC3)c(C)o2)cc1` show?
Given back: 703

Asked: `CCCn1cc(C2=CCN(S(=O)(=O)c3cc(OC)ccc3OC)CC2)c2cccnc21` , same question.
Given back: 728

Asked: `CC(=O)c1cccc(NC(=O)Cc2ccc3ccccc3c2)c1` , same question.
Given back: 858

Asked: Cc1cc(Cl)ccc1S(=O)(=O)N(C)C1CCc2nn(CC3CC3)c(=O)n2CC1 (centres undefined) , same question.
Given back: 772

These entries and their values trace back to the METLIN SMRT retention time set (Domingo-Almenara et al. 2019).
